# Test system: A549/ATCC NSCLC
# assay: NCI-60 one-dose screen, 48 h
# conditions: 10 µM unless noted
The panel holds about 83,000 compounds, 20% with a hit somewhere; the sample as a whole holds those more often. Calls of active or inactive are those of the source. How the source made its calls: active means growth percent below 10; inactive means the rest.
Please state which outcome applies, choosing from TRUE for active, FALSE for inactive

*Q* I'd appreciate the recorded outcome for `COC(=O)[C@H](Cc1cnc[nH]1)NC(=O)[C@@H](NC(=O)Nc1cc(C(F)(F)F)cc(C(F)(F)F)c1)C(C)C` from this test.
*A* TRUE

---

# Test system: LOX IMVI melanoma
# assay: NCI-60 one-dose screen, 48 h (100 = growth as untreated, 0 = no growth, -100 = all killed)
# conditions: 10 µM unless noted
Compounds without any hit were thinned out: in the full panel of roughly 83,000, 20% have a hit.
quantity: growth (%)
Write down the numeric answer in % and omit the unit.

Consider the following illustrative entries.
- N#Cc1c(-c2ccccc2)cc(-c2ccccc2)n(CCC(=O)O)c1=O: 51
- O=C1c2cccc(NCCN=Cc3ccccc3O)c2C(=O)c2c(NCCN=Cc3ccccc3O)cccc21: -3.1
- COc1ccc(-c2c3c(N)nc(-c4ccncc4)nc3nc3c2c(C)nn3-c2ccccc2)cc1: 41.2
- COc1cc(/C=C/C(=O)c2c(C)n([O-])c3ccccc3[n+]2=O)cc(OC)c1OC: 50.9

Now consider a different compound.
*Q* Query for LOX IMVI melanoma: what growth does the record show for `COc1cccc(-c2nc(-c3ccc(N)cc3)co2)c1` ?
*A* 97

---

# Test system: NCI-H23 lung
# assay: NCI-60 one-dose screen, 48 h
# conditions: 10 µM unless noted
The panel holds about 83,000 compounds, 20% with a hit somewhere; the sample as a whole holds those more often. Activity calls are given as the source filed them. How the source made its calls: active means growth percent below 10; inactive means the rest.
Mark one answer only. Choices: YES (active), NO (inactive)

Before answering, review these 8 worked examples.
* O=C(NCCNC(=O)Oc1cccc2ccccc12)Oc1cccc2ccccc12 | NO
* COC(=O)c1cc2c(/C=C3/NC(=S)NC3=O)coc2n1C | NO
* COc1cc(Cl)cc(-c2nn(-c3cccc(NC(=O)c4cc(C(F)(F)F)cc(C(F)(F)F)c4)c3)cc2-c2ccncc2)c1 | NO
* CCN1CC2=C(Nc3nc(SC)[nH]c(=O)c3C2c2cc(OC)c(OC)c(OC)c2)/C(=C/c2cc(OC)c(OC)c(OC)c2)C1 (centres undefined) | NO
* FC(F)(F)c1cc(-c2nnc3n2N=C(N2CCCC2)CS3)cc(C(F)(F)F)c1 | NO
* N[C@H](CS)C(=O)O | NO
* O=[N+]([O-])c1ccc(N=Nc2c(Cl)cc(O)cc2Cl)cc1 | YES
* CC(=O)OC1Oc2cc(C)c(C)cc2-c2oc(=O)c(-c3ccccc3)cc21 (centres undefined) | NO

*Q* Returns: the outcome recorded for `COc1cc(/C=N/NC(=O)c2ccc(C(F)(F)F)nc2Nc2ccc(Cl)cc2C)ccc1O` in this assay.
*A* NO

*Q* GET /call?item= `Cc1ccc(-c2c3c(N)nc(-c4ccncc4)nc3nc3c2c(C)nn3-c2ccccc2)cc1` returns the recorded outcome of this test.
*A* NO

---

Let's look at some compounds and their measured growth.
# System: HT29 colon
# assay: NCI-60 one-dose screen, 48 h (100 = growth as untreated, 0 = no growth, -100 = all killed)
# conditions: 10 µM unless noted
Compounds without any hit were thinned out: in the full panel of roughly 83,000, 20% have a hit.
// return numeric value only (unit: %, not printed)

Guide cases for growth, answers given:
* NS(=O)(=O)c1cc2c(cc1Cl)NC=NS2(=O)=O | 94.7
* Nc1nc2c(nnn2Cc2ccc(Cl)c(Cl)c2)c(=O)[nH]1 | 100
* COc1cnc2c(c1)C(=O)c1c-2n(CCCN2CCCC2)c(=O)c2cc(F)ccc12 | -31.2
* O=C1/C(=C/c2cccc(Cl)c2)CCc2ccccc21 | 91.2
* C/C(=C\CCc1ccoc1)CC/C=C(\C)CCCNc1ccc(F)cc1 | 78.8
* COP(=O)(OC)C(c1ccc(O)cc1)(c1ccc(O)cc1)c1ccc(O)cc1 | 110

*Q* Which growth is reported for this compound? `O=C(/C=C(\Nc1ccccc1)c1ccccc1)c1cn(-c2ccc([N+](=O)[O-])cc2)nn1`
*A* 96.9

*Q* Item under review: `COc1ccc2c(c1)C(=Nc1cc(OC)c(OC)c(OC)c1)C(=O)N2` . Reported growth?
*A* 115

*Q* Report growth for `N#Cc1c(-c2ccc(F)cc2)n2c(nc1=O)SC(=O)C2=O` please.
*A* 105

*Q* Data request, read-out growth, for COc1ccc(C2=NN(C=O)C(c3cccc(Nc4ccnc5cc(Cl)ccc45)c3)C2)cc1 (stereo unspecified)
*A* 4.88

*Q* What value of growth has been recorded for this entry: `Nc1ccccc1-c1ccn[nH]1`
*A* 106
